- STUDY SYSTEM: MYC (p64);MAX (p21), in MYC:MAX (human;human, UniProt P01106-1;P61244-2 1-439;1-151, |)
- Sequence (P01106 16-454, chain 1 of 2): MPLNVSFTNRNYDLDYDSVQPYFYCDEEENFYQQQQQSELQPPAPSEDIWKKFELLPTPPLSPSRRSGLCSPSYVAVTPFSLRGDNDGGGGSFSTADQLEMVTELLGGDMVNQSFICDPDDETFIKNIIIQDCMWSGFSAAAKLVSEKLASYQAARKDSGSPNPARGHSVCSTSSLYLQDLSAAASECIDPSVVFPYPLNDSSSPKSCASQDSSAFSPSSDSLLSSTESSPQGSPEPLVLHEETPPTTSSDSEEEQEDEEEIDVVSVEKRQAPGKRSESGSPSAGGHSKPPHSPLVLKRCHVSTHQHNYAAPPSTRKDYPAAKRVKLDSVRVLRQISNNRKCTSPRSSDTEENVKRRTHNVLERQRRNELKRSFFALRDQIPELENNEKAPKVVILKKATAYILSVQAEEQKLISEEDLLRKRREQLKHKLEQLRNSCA
- Sequence (P61244 other isoform, or with tags, fused parts or gaps |, chain 2 of 2): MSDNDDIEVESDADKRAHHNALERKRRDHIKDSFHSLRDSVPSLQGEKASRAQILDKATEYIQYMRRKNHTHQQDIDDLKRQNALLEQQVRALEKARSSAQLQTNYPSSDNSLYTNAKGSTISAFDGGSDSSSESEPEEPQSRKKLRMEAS
- PROTOCOL DETAILS: protein-binding microarray (anti-MAX antibody); PBM: 15 mM Tris-HCl pH 7.5, 100 mM KCl, 0.075% NP40, 7.5 mM beta-mercaptoethanol, 375 ng/ul BSA, 8 ng/ul poly(dA-dT):(dA-dT), 550 ng complex, 60 min, room tempe; high values mean tight binding
- TEST CONTEXT: protein: recombinant;recombinant; tags: 6xHis;6xHis; copies: 1;1; label: 3' end of printed strand (linker) attached to glass slide; dsDNA, one strand shown
The full ranking holds about 5,000 sequences; the median of “log2 normalized fluorescence” is about 0.089, and the highest 2% start at about 0.81. Shown is part of a subset that was picked to be rich in the highest values.
The reader will find reported binding signal values listed item by item below.
VALUE TYPE: binding signal

>  <SEQUENCE STRING>
CCGGCTGAAGACCTGTATTAATAGCTAAGATTACTATATCGACG

>  <RESULT>
0.0334 log2 normalized fluorescence

$$$$
>  <SEQUENCE STRING>
CCGGCTGAACTCGAGTATTAATAGCTAAGATTACTATATCGACG

>  <RESULT>
0.253 log2 normalized fluorescence

$$$$
>  <SEQUENCE STRING>
CCGGCTATCACGTGGTATTAATAGCTAAGATTACTATATCGACG

>  <RESULT>
0.71 log2 normalized fluorescence

$$$$
>  <SEQUENCE STRING>
CCGGCCCTCACGTGGTATTAATAGCTAAGATTACTATATCGACG

>  <RESULT>
0.828 log2 normalized fluorescence

$$$$
>  <SEQUENCE STRING>
CCGGCCATCACGTGGTATTAATAGCTAAGATTACTATATCGACG

>  <RESULT>
0.764 log2 normalized fluorescence

$$$$
>  <SEQUENCE STRING>
CCGGCTGAACGCTAGTATTAATAGCTAAGATTACTATATCGACG

>  <RESULT>
0.178 log2 normalized fluorescence

$$$$

====

- STUDY SYSTEM: MYC (p64);MAX (p21), in MYC:MAX (human;human, UniProt P01106-1;P61244-2 1-439;1-151, |)
- PROTOCOL DETAILS: protein-binding microarray (anti-MAX antibody); PBM: 15 mM Tris-HCl pH 7.5, 100 mM KCl, 0.075% NP40, 7.5 mM beta-mercaptoethanol, 375 ng/ul BSA, 8 ng/ul poly(dA-dT):(dA-dT), 550 ng complex, 60 min, room tempe; high values mean tight binding
- TEST CONTEXT: protein: recombinant;recombinant; tags: 6xHis;6xHis; copies: 1;1; label: 3' end of printed strand (linker) attached to glass slide; dsDNA, one strand shown
Whole data set: some 5,000 sequences, median “log2 normalized fluorescence” near 0.089, cut for the highest 2% near 0.81. Many of the other results were omitted from the sample, so the highest values are more common in it than they were.
The reader will find reported binding signal values listed item by item below.

>  <SEQUENCE STRING>
CCGGCAGACACGTGGTATTAATAGCTAAGATTACTATATCGACG

>  <STUDY SYSTEM>
MYC (p64);MAX (p21), in MYC:MAX (human;human, UniProt P01106-1;P61244-2 1-439;1-151, |)

>  <binding signal>
0.798 log2 normalized fluorescence

$$$$
>  <SEQUENCE STRING>
CCGGCTGACACGTCTTATTAATAGCTAAGATTACTATATCGACG

>  <STUDY SYSTEM>
MYC (p64);MAX (p21), in MYC:MAX (human;human, UniProt P01106-1;P61244-2 1-439;1-151, |)

>  <binding signal>
0.308 log2 normalized fluorescence

$$$$
>  <SEQUENCE STRING>
CCGGCTGACACGTGGTCTTAATAGCTAAGATTACTATATCGACG

>  <STUDY SYSTEM>
MYC (p64);MAX (p21), in MYC:MAX (human;human, UniProt P01106-1;P61244-2 1-439;1-151, |)

>  <binding signal>
1.02 log2 normalized fluorescence

$$$$
>  <SEQUENCE STRING>
CCGGCTGACCCGTGGTCTTAATAGCTAAGATTACTATATCGACG

>  <STUDY SYSTEM>
MYC (p64);MAX (p21), in MYC:MAX (human;human, UniProt P01106-1;P61244-2 1-439;1-151, |)

>  <binding signal>
0.399 log2 normalized fluorescence

$$$$
>  <SEQUENCE STRING>
CCGGCTGACACGCGGTCTTAATAGCTAAGATTACTATATCGACG

>  <STUDY SYSTEM>
MYC (p64);MAX (p21), in MYC:MAX (human;human, UniProt P01106-1;P61244-2 1-439;1-151, |)

>  <binding signal>
1.03 log2 normalized fluorescence

$$$$
>  <SEQUENCE STRING>
CCGGCAGACACGTGGTCTTAATAGCTAAGATTACTATATCGACG

>  <STUDY SYSTEM>
MYC (p64);MAX (p21), in MYC:MAX (human;human, UniProt P01106-1;P61244-2 1-439;1-151, |)

>  <binding signal>
0.904 log2 normalized fluorescence

$$$$
>  <SEQUENCE STRING>
CCGGCTGATGTAATGTATTAATAGCTAAGATTACTATATCGACG

>  <STUDY SYSTEM>
MYC (p64);MAX (p21), in MYC:MAX (human;human, UniProt P01106-1;P61244-2 1-439;1-151, |)

>  <binding signal>
0.000857 log2 normalized fluorescence

$$$$
